Entry source: ChEMBL document CHEMBL1138382

# target: Gamma-secretase
# test_details: Inhibition of Gamma-secretase
pIC50: −log10 of the molar value.
Binary call on pIC50: 1 from 6 upward, 0 beneath that.

Example results:
CCN(CCCN1CCCC1)C(=O)OCC1CCc2ccccc2N1S(=O)(=O)c1ccc(Cl)cc1 (centres undefined)    1
O=C(OCC1CCc2ccccc2N1S(=O)(=O)c1ccc(Cl)cc1)N1CCC(N2CCCCCC2)CC1 (centres undefined)    1
O=C(OCC1CCc2ccccc2N1S(=O)(=O)c1ccc(Cl)cc1)N1CCN(C2CCCCC2)CC1 (centres undefined)    1

Q: # check: pIC50 of O=C(NCc1ccc([N+](=O)[O-])cc1)OCC1CCc2ccccc2N1S(=O)(=O)c1ccc(Cl)cc1 (centres undefined) is greater than or equal to 6
Result: 0

Q: Check the entry O=C(OCC1CCc2cc(F)ccc2N1S(=O)(=O)c1ccc(Cl)cc1)N1CCC(N2CCCCC2)CC1 (centres undefined) : does pIC50 equal or exceed 6?
Result: 0

* * *

Below, each entry is listed with its recorded pIC50.
# target: Gamma-secretase
# test_details: Inhibition of Gamma-secretase
Keep it numeric: pIC50 is minus log10 of the concentration in mol/L.

According to the records, this compound O=C(NCCc1ccccc1)OCC1CCc2ccccc2N1S(=O)(=O)c1ccc(Cl)cc1 (centres undefined) displays pIC50 of 5.96

The recorded pIC50 for entry O=C(OCC1CCc2ccccc2N1S(=O)(=O)c1ccc(Cl)cc1)N1CCN(CCO)CC1 (centres undefined) equals 6.52

* * *

# target: Gamma-secretase
# test_details: Inhibition of Gamma-secretase
List of pIC50 values.
Reminder that pIC50 is minus the log10 of a molar concentration.

CCN(CCC1CCCN1C)C(=O)OCC1CCc2ccccc2N1S(=O)(=O)c1ccc(Cl)cc1 (configuration not stated)    6.60
O=C(NCCO)OCC1CCc2ccccc2N1S(=O)(=O)c1ccc(Cl)cc1 (configuration not stated)    5.35

As a next step, examine the molecule that follows.
Lab note: measured pIC50 of NC1CCN(C(=O)OCC2CCc3ccccc3N2S(=O)(=O)c2ccc(Cl)cc2)CC1 (configuration not stated) was 6.17

* * *

# target: Gamma-secretase
# test_details: Inhibition of Gamma-secretase
pIC50: −log10 of the molar value.
Returns one of MET or NOT MET; MET when pIC50 is >= 7.

CCN(Cc1ccnc(N)c1)C(=O)OCC1CCc2ccccc2N1S(=O)(=O)c1ccc(Cl)cc1 (centres undefined)    NOT MET
O=C(OCC1CCc2c(F)cc(F)cc2N1S(=O)(=O)c1ccc(Cl)cc1)N1CCC(N2CCCCC2)CC1 (centres undefined)    NOT MET
CN1CCCC1CCNC(=O)OCC1CCc2ccccc2N1S(=O)(=O)c1ccc(Cl)cc1 (centres undefined)    NOT MET
O=C(OCC1CCc2ccccc2N1S(=O)(=O)c1ccc(Cl)cc1)N1CCC(N2CCCCC2)CC1 (single isomer, unassigned; enantiomer a)    MET

Q: Given O=C(OCC1CCc2ccccc2N1S(=O)(=O)c1ccc(Cl)cc1)N1CCC(N2CCCC2)CC1 (centres undefined) , state whether its pIC50 is at least 7.
Result: NOT MET

Q: Reported pIC50 at or above 7? O=C(OCC1CCc2ccccc2N1S(=O)(=O)c1ccc(Cl)cc1)N1CCC(N2CCCCC2)CC1 (single isomer, unassigned; enantiomer b)
Result: NOT MET
